# IC50 listing for each entry below
# Study System: human P2X3 receptor (Homo sapiens (Human), UniProt P56373)
# Sequence (P56373 whole entry): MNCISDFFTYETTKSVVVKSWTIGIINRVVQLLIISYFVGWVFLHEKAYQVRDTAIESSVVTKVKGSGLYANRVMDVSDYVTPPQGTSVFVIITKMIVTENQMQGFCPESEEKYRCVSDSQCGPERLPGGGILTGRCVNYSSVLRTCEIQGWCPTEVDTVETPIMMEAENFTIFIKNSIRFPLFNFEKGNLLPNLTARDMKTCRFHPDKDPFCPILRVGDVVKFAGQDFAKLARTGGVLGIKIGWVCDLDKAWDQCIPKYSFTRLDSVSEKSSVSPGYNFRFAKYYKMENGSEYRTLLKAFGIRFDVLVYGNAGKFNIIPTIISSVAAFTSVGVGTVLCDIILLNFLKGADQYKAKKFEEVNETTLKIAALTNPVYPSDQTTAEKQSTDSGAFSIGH
# Protocol: Evaluation of human P2X3 receptor inhibitory activity (Fluo-3 calcium fluorescence, FDSS 3000, ATP stimulation)
# Format: cell-based
# Test Context: C6BU-1 cells stably expressing human P2X3 receptor
The answer is to be given in nM; state only the numeric part.

For the compound shown here, CCOC(=O)CCn1c(=O)[nH]/c(=N\c2ccc(OC3CCC3)c(Cl)c2)n(Cc2ccc(C)cc2)c1=O , give the reported IC50. 12

Looking for the measured IC50 of COC(=O)[C@@H](C)[C@@H](C)n1c(=O)[nH]/c(=N\c2cccc(C(F)(F)F)c2)n(Cc2ccc(Cl)cc2)c1=O , can you help? 105

Which value of IC50 has been reported for CC(C)Oc1ccc(/N=c2\[nH]c(=O)n(CCC(=O)O)c(=O)n2CC2CCC3(CC2)CC3)cc1Cl in the records? 25

Others:
Fill in: IC50 of COC(=O)[C@@H](C)Cn1c(=O)[nH]/c(=N\c2ccc(C3CC3)cc2)n(Cc2ccc(C)cc2)c1=O is ___ 272

What value of IC50 has been recorded for this entry: CCOC(=O)[C@H](CCn1c(=O)[nH]/c(=N\c2ccc(OC(C)C)c(C)c2)n(Cc2ccc(Cl)cc2)c1=O)NC(=O)OC(C)(C)C 21

Fill in the blank: the reported IC50 of Cc1ccc(Cn2c(=O)n(CCC(=O)O)c(=O)[nH]/c2=N\c2cc(C(F)(F)F)ccc2C)cc1 is ____. 833

Form field: reported IC50 of CC[C@@H](CC(=O)OC)n1c(=O)[nH]/c(=N\c2ccc(OC(C)C)c(C)c2)n(Cc2ccc(Cl)cc2)c1=O 192

---

Examples of compounds with documented pIC50 follow.
# Study System: human P2X3 receptor (Homo sapiens (Human), UniProt P56373)
# Protocol: Evaluation of human P2X3 receptor inhibitory activity (Fluo-3 calcium fluorescence, FDSS 3000, ATP stimulation);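 further: stimulus was 50 nM ATP with fluorescence followed for 3 min, and the response per well was peak post-ATP fluorescence divided by the reading at measurement start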
# Assay type: cell-based
# Test Context: human P2X3 receptor, Test Example 1
Note on units: pIC50 is unitless, being -log10 of a concentration expressed in mol/L.

// query pIC50 value for entry CC[C@@H](C)Oc1ccc(/N=c2\[nH]c(=O)n(C[C@H](C)C(=O)O)c(=O)n2Cc2ccc(C)cc2)cc1 7.49

Requested read-out: pIC50. Entry: CCn1c(=O)[nH]/c(=N\c2ccc(Oc3ccnc(NC(=O)OC(C)(C)C)c3)cc2)n(Cc2ccc(Cl)cc2)c1=O 7.54

Quick one: pIC50 for Cc1cnc(Oc2ccc(/N=c3\[nH]c(=O)n(CC(=O)O)c(=O)n3Cc3ccc(Cl)cc3)cc2)s1 ? 6.43

Could you now look at the following compound, please?
What value of pIC50 has been recorded for this entry: O=c1[nH]/c(=N\c2ccc(Oc3cccc(F)n3)cc2)n(Cc2ccc(F)cc2)c(=O)n1CC(CO)CO 7.82

---

# reported IC50; entries follow
# Study System: UniProt:P56373
# Protocol: Evaluation of human P2X3 receptor inhibitory activity (Fluo-3 calcium fluorescence, FDSS 3000, ATP stimulation)
# Type: cell-based
# Test Context: C6BU-1 cells stably expressing human P2X3 receptor
Number only, in nM; omit the unit.

Quick one: IC50 for C[C@@H](Cn1c(=O)[nH]/c(=N\c2cnc(OC3CCC3)c(Cl)c2)n(Cc2ccc(Cl)cc2)c1=O)C(=O)O ? 58

Given the entry CCn1c(=O)[nH]/c(=N\c2ccc(Oc3cncc(C(=O)OC)c3)cc2)n(Cc2ccc(C)cc2)c1=O , report its measured IC50. 7

I have this compound here, COC(=O)[C@H](C)[C@H](C)n1c(=O)[nH]/c(=N\c2ccc(OC3CCC3)cc2)n(Cc2ccc(Cl)cc2)c1=O , and I need its recorded IC50. 12

// lookup IC50 for CCn1c(=O)[nH]/c(=N\c2ccc(Oc3cncc(C(=O)OC)c3)cc2)n(Cc2ccc(F)cc2)c1=O 44

Record request: IC50 value, item CCOC(=O)CCn1c(=O)[nH]/c(=N\c2ccc(OC(C)C)c(CO)c2)n(Cc2ccc(C)cc2)c1=O 35

New cases:
Consider the compound shown here: CC(C)Oc1ccc(/N=c2\[nH]c(=O)n(CC(=O)NN)c(=O)n2Cc2ccc(Cl)cc2)cc1F What is its recorded IC50? 19

# IC50 lookup, item COC(=O)[C@@H](C)[C@@H](C)n1c(=O)[nH]/c(=N\c2ccc(CC(C)C)c(Cl)c2)n(Cc2ccc(Cl)cc2)c1=O 63

# input compound: COC(=O)[C@@H](C)Cn1c(=O)[nH]/c(=N\c2ccc3ncccc3c2)n(Cc2ccc(Cl)cc2)c1=O ; wanted: its IC50 544

Reported IC50 for CCn1c(=O)[nH]/c(=N\c2ccc(Oc3cc(C(N)=O)on3)cc2)n(Cc2ccc(Cl)cc2)c1=O : what is it? 7

Returns the measured IC50 for the input compound. Input: CCn1c(=O)[nH]/c(=N\c2ccc(OCCN(C)C(C)=O)cc2)n(Cc2ccc(Cl)cc2)c1=O 215

Would you kindly share the measured IC50 for CCOC(=O)CCCn1c(=O)[nH]/c(=N\c2ccc3oc(C)cc3c2)n(Cc2ccc(C)cc2)c1=O ? 15

Give the measured IC50 of CCCCc1ccc(/N=c2\[nH]c(=O)n(C[C@H](C)C(=O)OC)c(=O)n2Cc2ccc(Cl)cc2)cc1 . 44

Given the entry CCc1nc2ccc(/N=c3\[nH]c(=O)n(CCCCC(=O)O)c(=O)n3Cc3ccc(Cl)cc3)cc2s1 , report its measured IC50. 15

Field request: IC50 | item: O=c1[nH]/c(=N\c2ccc(OC3CCC3)cc2)n(Cc2ccc(Cl)cc2)c(=O)n1CC(CO)CO 7

Provenance of the data: patent US9718790B2
